Tested on: S. aureus ATCC25923 C622
Assay: MIC by microtitre broth dilution
Format: cell-based
Settings: Gram+, wt, Mueller Hinton broth, 37° C., 24 h
parameter measured: Minimum inhibitory concentration

CC[C@@]1(O)C(=O)OCc2c1cc1n(c2=O)Cc2cc3ccccc3nc2-1 [camptothecin, camptothecins] ... N
CN(Cc1cnc2nc(N)nc(N)c2n1)c1ccc(C(=O)N[C@@H](CCC(=O)O)C(=O)O)cc1 [methotrexate] ... 10^−5 Molar
COc1cccc2c1C(=O)c1c(O)c3c(c(O)c1C2=O)C[C@@](O)(C(=O)CO)C[C@@H]3O[C@H]1C[C@H](N)[C@H](O)[C@H](C)O1 [doxorubicin] ... 10^−5 Molar
O=c1[nH]cc(F)c(=O)[nH]1 [5-fluorouracil, 5-FU] ... 10^−7 Molar
Nc1ncnc2c1ccn2[C@@H]1O[C@H](CO)[C@@H](O)[C@H]1O [tubercidin] ... N
Nc1ccn([C@@H]2O[C@H](CO)[C@@H](O)[C@@H]2O)c(=O)n1 [Cytarabine, cytarabine] ... N
Sc1ncc2[nH]cnc2n1 [2-mercaptopurine] ... N
COc1cc([C@@H]2c3cc4c(cc3[C@@H](O[C@@H]3O[C@@H]5CO[C@@H](C)O[C@H]5[C@H](O)[C@H]3O)[C@H]3COC(=O)[C@H]23)OCO4)cc(OC)c1O [etoposide] ... 10^−5 Molar
Sc1ncnc2nc[nH]c12 [6-mercaptopurine] ... N
O=C1c2c(O)ccc(O)c2C(=O)c2c(NCCNCCO)ccc(NCCNCCO)c21 [mitoxantrone] ... 10^−5 Molar
N.N.[Cl][Pt][Cl] [cisplatin] ... N
NC(=O)NO [hydroxyurea] ... N

###

Test system: S. epidermidis C621
Assay: MIC by microtitre broth dilution
Assay type: cell-based
Settings: Gram+, wt, Mueller Hinton broth, 37° C., 24 h
Protocol: MIC assays were conducted essentially as described by Amsterdam, D. 1996, “Susceptibility testing of antimicrobials in liquid media”, p. 52-111, in Loman, V., ed. Antibiotics in laboratory medicine, 4th ed. Williams and Wilkins, Baltimore, Md.
parameter measured: Minimum inhibitory concentration

O=C1c2c(O)ccc(O)c2C(=O)c2c(NCCNCCO)ccc(NCCNCCO)c21 ... 10^−5 Molar
Sc1ncc2[nH]cnc2n1 ... N
O=c1[nH]cc(F)c(=O)[nH]1 ... 10^−7 Molar
COc1cc([C@@H]2c3cc4c(cc3[C@@H](O[C@@H]3O[C@@H]5CO[C@@H](C)O[C@H]5[C@H](O)[C@H]3O)[C@H]3COC(=O)[C@H]23)OCO4)cc(OC)c1O [etoposide] ... 10^−6 Molar
